Taken from patent US20030068675.

Target: ZFP SBS#262 (synthetic)
Sequence (chain, as listed by the source): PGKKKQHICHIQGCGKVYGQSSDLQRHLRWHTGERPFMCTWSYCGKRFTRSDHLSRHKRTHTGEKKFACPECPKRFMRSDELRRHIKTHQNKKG
Assay: EMSA
Conditions: tags: MBP fusion
pKd: −log10 of the molar value.

- binder: "GCGGGGGCT (dsDNA) DNA 1: GCGGGGGCT DNA 2: AGCCCCCGC"
  pKd: 7.70
